Target: Rho-associated protein kinase 1 (Homo sapiens, UniProt Q13464)
Sequence (Q13464 whole entry): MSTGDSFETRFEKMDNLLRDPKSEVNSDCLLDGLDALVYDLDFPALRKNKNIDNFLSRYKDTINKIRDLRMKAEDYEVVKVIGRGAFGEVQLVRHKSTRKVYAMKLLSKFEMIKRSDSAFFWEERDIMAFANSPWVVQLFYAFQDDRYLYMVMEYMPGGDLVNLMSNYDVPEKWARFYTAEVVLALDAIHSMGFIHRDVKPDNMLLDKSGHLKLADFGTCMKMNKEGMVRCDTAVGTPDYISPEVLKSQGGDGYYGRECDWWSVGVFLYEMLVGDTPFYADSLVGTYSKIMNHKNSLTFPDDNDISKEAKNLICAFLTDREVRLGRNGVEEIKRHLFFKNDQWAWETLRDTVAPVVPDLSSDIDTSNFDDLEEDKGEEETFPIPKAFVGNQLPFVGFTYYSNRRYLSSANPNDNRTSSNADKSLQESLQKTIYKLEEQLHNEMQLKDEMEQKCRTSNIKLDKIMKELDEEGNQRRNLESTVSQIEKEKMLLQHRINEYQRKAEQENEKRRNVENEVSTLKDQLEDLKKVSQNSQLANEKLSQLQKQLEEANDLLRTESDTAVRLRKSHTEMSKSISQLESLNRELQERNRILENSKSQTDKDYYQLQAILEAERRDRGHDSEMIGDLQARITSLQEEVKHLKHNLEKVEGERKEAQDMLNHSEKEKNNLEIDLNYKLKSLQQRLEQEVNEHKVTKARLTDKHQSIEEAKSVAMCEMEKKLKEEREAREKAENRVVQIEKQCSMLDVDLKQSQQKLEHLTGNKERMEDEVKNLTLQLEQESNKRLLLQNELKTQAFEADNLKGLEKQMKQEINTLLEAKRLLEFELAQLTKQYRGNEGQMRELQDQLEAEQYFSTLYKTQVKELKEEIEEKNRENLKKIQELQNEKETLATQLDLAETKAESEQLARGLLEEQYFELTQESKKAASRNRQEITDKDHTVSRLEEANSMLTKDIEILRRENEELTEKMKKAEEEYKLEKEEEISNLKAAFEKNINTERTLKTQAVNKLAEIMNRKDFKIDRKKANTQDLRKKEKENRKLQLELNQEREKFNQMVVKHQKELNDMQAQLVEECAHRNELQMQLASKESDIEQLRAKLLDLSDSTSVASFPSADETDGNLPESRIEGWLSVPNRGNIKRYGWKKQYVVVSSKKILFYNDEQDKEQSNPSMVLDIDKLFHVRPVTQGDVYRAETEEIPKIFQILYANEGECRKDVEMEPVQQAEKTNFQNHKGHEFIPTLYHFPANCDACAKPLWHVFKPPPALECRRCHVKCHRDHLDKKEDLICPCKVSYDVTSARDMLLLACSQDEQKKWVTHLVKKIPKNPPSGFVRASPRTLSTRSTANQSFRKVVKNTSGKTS
pIC50: −log10 of the molar value.
OBSERVABLE: pIC50

INSERT INTO results (compound, observable, measurement) VALUES
  ('CC1=C(C(=O)Nc2ccc3[nH]ncc3c2)C(c2ccc(F)cc2)NC(=O)N1 (centres undefined) [GSK-180736A]', 'pIC50', 7.00);

I: CC1=C(C(=O)Nc2ccc3[nH]ncc3c2)C(c2ccc(F)c(C(=O)NCc3c(F)cccc3F)c2)NC(=O)N1 (centres undefined)
II: CC1=C(C(=O)Nc2ccc3[nH]ncc3c2)C(c2ccc(F)c(C(=O)NCc3nccc4ccccc34)c2)NC(=O)N1 (centres undefined)
III: CC1=C(C(=O)Nc2ccc3[nH]ncc3c2)C(c2ccc(F)c(C(=O)O)c2)NC(=O)N1 (centres undefined)
Reorder: pIC50, max to min. Could you list the labels in the order requested?
II, I, III
